- TEST SYSTEM: KRAS G12D (Homo sapiens, UniProt P01116+P62937, G12D)
- Sequence (P01116 1-169 isoform P01116-2 G12D limits assumed, one chain of several): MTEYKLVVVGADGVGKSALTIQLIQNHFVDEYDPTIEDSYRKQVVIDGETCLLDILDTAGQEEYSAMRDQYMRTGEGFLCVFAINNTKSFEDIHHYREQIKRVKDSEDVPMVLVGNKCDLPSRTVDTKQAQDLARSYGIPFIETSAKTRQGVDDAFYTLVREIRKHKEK
- PROTOCOL NOTES: Disruption of BRAF RBD interaction with Ras (FRET / MOA assay, with Cyclophilin A)
- Type: biochemical
- RUN CONDITIONS: read-out: KRAS G12D FRET data, IC50
pIC50: −log10 of the molar value.
ENDPOINT: pIC50

Which measured pIC50 value corresponds to CCn1c(-c2cccnc2[C@H](C)OC)c2c3cc(ccc31)-c1cc(O)cc(c1)C[C@H](NC(=O)[C@H](C1CCCC1)N(C)C(=O)N1CCS(=O)(=NC)CC1)C(=O)N1CCC[C@H](N1)C(=O)OCC(C)(C)C2 ?
6.00 to 7.00

Which measured pIC50 value corresponds to CCn1c(-c2cccnc2[C@H](C)OC)c2c3cc(ccc31)-c1cc(O)cc(c1)C[C@H](NC(=O)[C@H](C(C)C)N(C)C(=O)[C@H]1CCC[C@H]1N)C(=O)N1CCC[C@H](N1)C(=O)OCC(C)(C)C2 (atropisomer, axis not shown) ?
7.00 to 8.00

Which measured pIC50 value corresponds to C=CC(=O)N1CC[C@H](C(=O)N(C)[C@H](C(=O)N[C@H]2Cc3cc(O)cc(c3)-c3ccc4c(c3)c(c(-c3ccnc5c3[C@@H](OC)CC5)n4CC)CC(C)(C)COC(=O)[C@@H]3CCCN(N3)C2=O)C(C)C)C1 ?
6.00 to 7.00

Which measured pIC50 value corresponds to CCn1c(-c2cccnc2[C@H](C)OC)c2c3cc(ccc31)-c1csc(n1)C[C@H](NC(=O)[C@H](C(C)C)N(C)C(=O)N1CC[C@]13CCCNC3)C(=O)N1CCC[C@H](N1)C(=O)OCC(C)(C)C2 ?
6.00 to 7.00

---

- TEST SYSTEM: NRAS WT (Homo sapiens, UniProt P01111+P62937)
- Sequence (P01111 whole entry): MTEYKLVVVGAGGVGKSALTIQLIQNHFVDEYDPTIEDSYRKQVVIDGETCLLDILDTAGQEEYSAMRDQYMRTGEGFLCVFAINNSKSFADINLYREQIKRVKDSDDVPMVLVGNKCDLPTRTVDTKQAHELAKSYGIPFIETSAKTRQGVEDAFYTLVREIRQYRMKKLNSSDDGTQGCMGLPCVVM
- Sequence (P62937 whole entry): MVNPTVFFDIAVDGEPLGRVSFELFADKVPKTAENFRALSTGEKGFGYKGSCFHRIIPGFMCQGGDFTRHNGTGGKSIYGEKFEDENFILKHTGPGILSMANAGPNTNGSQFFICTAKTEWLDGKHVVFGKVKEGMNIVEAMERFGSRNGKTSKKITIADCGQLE
- PROTOCOL NOTES: Ras-Raf disruption / FRET / MOA assay (BRAF RBD)
- Format: biochemical
- RUN CONDITIONS: NRAS WT; read-out: NRAS WT FRET data IC50
ENDPOINT: IC50

Which measured IC50 value corresponds to CCn1c(-c2cccnc2[C@H](C)OC)c2c3cc(ccc31)-c1cc(O)cc(c1)C[C@H](NC(=O)[C@H](C(C)C)N(C)C(=O)CN(C)C(=O)[C@H]1C[C@@H]3N[C@@H]3C1)C(=O)N1CCC[C@H](N1)C(=O)OCC(C)(C)C2 (atropisomer, axis not shown) ?
10 to 100 nM

Which measured IC50 value corresponds to CCn1c(-c2cccnc2[C@H](C)OC)c2c3cc(ccc31)-c1cc(O)cc(c1)C[C@H](NC(=O)[C@H](C(C)C)N(C)C(=O)[C@H]1C[C@H]3CC[C@@H](C1)N3C(=O)[C@H]1CN1)C(=O)N1CCC[C@H](N1)C(=O)OCC(C)(C)C2 (atropisomer, axis not shown) ?
10 to 100 nM

Which measured IC50 value corresponds to CCn1c(-c2cccnc2[C@H](C)OC)c2c3cc(ccc31)-c1cc(O)cc(c1)C[C@H](NC(=O)[C@H](C(C)C)N(C)C(=O)[C@H]1CCCCN(C(=O)[C@H]3CN3)C1)C(=O)N1CCC[C@H](N1)C(=O)OCC(C)(C)C2 (atropisomer, axis not shown) ?
100 to 1000 nM

Which measured IC50 value corresponds to CCn1c(-c2cccnc2[C@H](C)OC)c2c3cc(ccc31)-c1csc(n1)C[C@H](NC(=O)[C@H](C(C)C)N(C)C(=O)N1CCC[C@H](N(C)C(=O)[C@@H]3CN3)C1)C(=O)N1CCC[C@H](N1)C(=O)OCC(C)(C)C2 (atropisomer, axis not shown) ?
100 to 1000 nM

Which measured IC50 value corresponds to CCn1c(-c2cccnc2[C@H](C)OC)c2c3cc(ccc31)-c1csc(n1)C[C@H](NC(=O)[C@H](C(C)C)N(C)C(=O)N1CC[C@@H](N(C)C(=O)[C@@H]3CN3)C1)C(=O)N1CCC[C@H](N1)C(=O)OCC(C)(C)C2 (atropisomer, axis not shown) ?
100 to 1000 nM

Which measured IC50 value corresponds to CCn1c(-c2cccnc2[C@H](C)OC)c2c3cc(ccc31)-c1cc(O)cc(c1)C[C@H](NC(=O)[C@H](C(C)C)N(C)C(=O)N1C[C@@H]3[C@H]1CCN3C(=O)[C@H]1CN1)C(=O)N1CCC[C@H](N1)C(=O)OCC(C)(C)C2 (atropisomer, axis not shown) ?
100 to 1000 nM

Hello, the source for this data is patent US20230233569A1, in case you need it.
